# assay-name: Nitric oxide released from prodrug in the absence of cysteine
% NO2- reference
Give a bare numeral; the unit M/M is implied.

Look over these answered cases.
CN(C)CCSc1c(-c2ccccc2)no[n+]1[O-]: 0
NCCOc1no[n+]([O-])c1S(=O)(=O)c1ccccc1: 0
O=[N+]([O-])OCC(CO[N+](=O)[O-])O[N+](=O)[O-]: 0
CN(C)CCSc1no[n+]([O-])c1S(=O)(=O)c1ccccc1: 0
CN(C)CCOc1c(-c2ccccc2)no[n+]1[O-]: 6.3

Could you now consider this next molecule?
QUERY: Request the reported % NO2- associated with CN(C)CCS(=O)(=O)c1no[n+]([O-])c1-c1ccccc1
RESULT: 0

---

# assay-name: Nitric oxide released from prodrug in the presence of cysteine
quantity-name: % NO2- (M/M)
Only the number, expressed in M/M, is required.

CN(C)CCOc1no[n+]([O-])c1S(=O)(=O)c1ccccc1: 58.9
CN(C)CCCOc1no[n+]([O-])c1-c1ccccc1: 3.9
O=[N+]([O-])OCC(CO[N+](=O)[O-])O[N+](=O)[O-] [NITROGLYCERIN]: 45
CN(C)CCOc1c(-c2ccccc2)no[n+]1[O-]: 62.9
CN(C)CCSc1c(-c2ccccc2)no[n+]1[O-]: 35
CN(C)CCSc1c(S(=O)(=O)c2ccccc2)no[n+]1[O-]: 58.5
CN(C)CCSc1no[n+]([O-])c1S(=O)(=O)c1ccccc1: 27.9
CN(C)CCOc1no[n+]([O-])c1-c1ccccc1: 3.9

QUERY: What does the record list as % NO2- for CN(C)CCCOc1no[n+]([O-])c1S(=O)(=O)c1ccccc1 ?
RESULT: 20.2

QUERY: Value lookup for % NO2-; key = CN(C)CCSc1no[n+]([O-])c1-c1ccccc1
RESULT: 2.9

---

# assay-name: Nitric oxide released from prodrug in the absence of cysteine
Let's look at some compounds and their measured % NO2-.
The reply should be a number in M/M, with the unit left off.

CN(C)CCOc1no[n+]([O-])c1S(=O)(=O)c1ccccc1: 0
CN(C)CCSc1c(S(=O)(=O)c2ccccc2)no[n+]1[O-]: 95.3
NCCSc1no[n+]([O-])c1-c1ccccc1: 0

QUERY: Return reported % NO2-; argument: CN(C)CCCOc1no[n+]([O-])c1-c1ccccc1
RESULT: 0

---

# assay-name: Nitric oxide released from prodrug in the presence of cysteine
quantity-name: log10(% NO2-) (log10 of the value in M/M)
Scale: decimal log of % NO2-, % NO2- in M/M.

Below: 2 compounds and their reported log10(% NO2-).
NCCSc1no[n+]([O-])c1-c1ccccc1: 0.45
NCCSc1c(-c2ccccc2)no[n+]1[O-]: 1.58

QUERY: Item CN(C)CCS(=O)(=O)c1c(-c2ccccc2)no[n+]1[O-] has what recorded log10(% NO2-)?
RESULT: 1.56

---

# assay-name: Nitric oxide released from prodrug in the absence of cysteine
quantity-name: % NO2-
Reply with the number, then its unit.

Example results:
CN(C)CCOc1no[n+]([O-])c1-c1ccccc1: 0 M/M
CN(C)CCCOc1c(-c2ccccc2)no[n+]1[O-]: 0 M/M
NCCSc1c(-c2ccccc2)no[n+]1[O-]: 4.5 M/M
CN(C)CCS(=O)(=O)c1c(-c2ccccc2)no[n+]1[O-]: 0 M/M
CN(C)CCSc1no[n+]([O-])c1-c1ccccc1: 0 M/M

// switching to the query molecule
QUERY: # get_value(readout='% NO2-', item= CN(C)CCCOc1no[n+]([O-])c1S(=O)(=O)c1ccccc1 )
RESULT: 0 M/M
